# target under test: Gamma-aminobutyric acid receptor subunit alpha-1/beta-2/beta-3/gamma-2 (Rattus norvegicus) (UniProt P18508+P62813+P63079+P63138)
# experiment description: Agonist activity at GABA alpha1beta2beta3gamma2 receptor Bzd binding site in Sprague-Dawley rat cerebellar granule cells assessed as increase in GABA-activated chloride currents at 1 uM by whole-cell patch clamp technique relative to control
Label no (0) if Efficacy falls below 30%; label yes (1) in every other case.

INSERT INTO assay_data (molecule, cat) VALUES
  ('CN1CCN(C(=O)CC2c3ccccc3C(=O)N2c2ccc(Br)cn2)CC1.Cl (stereo unspecified)', 'no (0)'),
  ('CN1CCN(C(=O)CC2c3ccccc3C(=O)N2c2ccc(Cl)cn2)CC1.Cl (stereo unspecified)', 'no (0)'),
  ('CN1CCN(C(=O)CC2c3ccccc3C(=O)N2c2ccc([N+](=O)[O-])cn2)CC1.Cl (stereo unspecified)', 'yes (1)'),
  ('CN1CCN(C(=O)CC2c3ccccc3C(=O)N2c2ccccn2)CC1.Cl (stereo unspecified)', 'no (0)'),
  ('Cc1ccc(N2C(=O)c3ccccc3C2CC(=O)N2CCN(C)CC2)nc1.Cl (stereo unspecified)', 'no (0)'),
  ('CN1CCN(C(=O)OC2c3nccnc3C(=O)N2c2ccc(Cl)cn2)CC1 (stereo unspecified)', 'yes (1)');
